Measured values drawn from the kinase profiling compilation of Christmann-Franck et al. (2016) for this set.

Here the recorded residual activity is given for each entry.
Molecular target: ERBB4 (human)
Experiment: radiometric filter-binding kinase assay, Kinase HotSpot
Conditions: compound 0.5 µM; ATP 10 µM

{"columns": ["molecule", "measurement_units", "residual activity"],
 "data": [
  ["COc1cc2nccc(Oc3ccc(NC(=S)NC(=O)c4ccccc4C)cc3)c2cc1OC", "%", 114],
  ["CS(=O)c1ccc(-c2nc(-c3ccc(F)cc3)c(-c3ccncc3)[nH]2)cc1 (stereo not given)", "%", 66.8],
  ["CCN1/C(=C/C(C)=O)Sc2ccc(OC)cc21", "%", 101],
  ["CSc1nc(-c2ccc(F)cc2)c(-c2ccnc(NC(C)c3ccccc3)c2)[nH]1 (stereo not given)", "%", 98.4],
  ["CC(C)[C@H](CO)Nc1nc(Nc2cccc(Cl)c2)c2ncn(C(C)C)c2n1", "%", 78.4],
  ["NC(=O)c1ccc(N(C(N)=O)c2c(F)cccc2F)nc1-c1ccc(F)cc1F", "%", 98.1],
  ["O=C1Cc2c([nH]c3ccc([N+](=O)[O-])cc23)-c2ccccc2N1", "%", 87.3],
  ["COc1cc2ncnc(Nc3ccc(F)c(Cl)c3)c2cc1OCCCN1CCOCC1", "%", 24.2],
  ["O=c1cc(-c2cccc3c2Sc2ccccc2S3)oc(N2CCOCC2)c1", "%", 105],
  ["O=C1Nc2ccccc2/C1=C\\c1c(Cl)[nH]c2ccccc12", "%", 103]
]}
